Would you kindly list pIC50 for each of these compounds?
Target or system: human recombinant p38α protein kinase (Homo sapiens, UniProt Q16539)
Construct: purchased UBI 14-251; host or cells: E. coli
Sequence (Q16539 whole entry): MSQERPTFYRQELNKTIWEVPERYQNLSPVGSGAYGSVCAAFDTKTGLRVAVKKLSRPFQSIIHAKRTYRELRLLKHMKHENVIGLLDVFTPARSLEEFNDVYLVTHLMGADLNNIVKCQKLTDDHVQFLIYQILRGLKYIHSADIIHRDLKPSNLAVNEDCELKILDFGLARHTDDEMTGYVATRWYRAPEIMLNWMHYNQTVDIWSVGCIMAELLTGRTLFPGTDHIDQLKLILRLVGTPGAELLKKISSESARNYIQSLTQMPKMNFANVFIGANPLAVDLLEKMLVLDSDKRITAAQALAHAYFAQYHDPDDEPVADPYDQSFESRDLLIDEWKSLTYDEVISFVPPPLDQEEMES
Test details: Human p38α MAP kinase inhibition assay (cell-free, phosphorylation of myelin basic protein)
Format: biochemical
Protocol conditions: inhibition of phosphorylation of myelin basic protein by recombinant human p38α MAP kinase by 50%, Table III; read-out: IC50 p38α MAPK
Where a name gives a salt, the structure may show the parent alone.
Give bare numbers, as −log10 of the molar value.

Answered examples (4):
Compound	pIC50
O=C(O)C[C@H](O)C[C@H](O)/C=C/c1c(-c2ccccc2)nn(-c2ccnc(Nc3ccccc3)n2)c1-c1ccccc1 [Example 11a, calcium salt]	4.96
CCC(C)c1nn(-c2ccnc(Nc3ccccc3)c2)c(-c2ccc(F)cc2)c1/C=C/[C@@H]1C[C@@H](O)CC(=O)O1 (stereo partly shown) [Example 10b]	5.22
O=C1C[C@H](O)C[C@@H](/C=C/c2c(-c3ccccc3)nn(-c3ccnc(Nc4ccccc4)n3)c2-c2ccccc2)O1 [Example 11b]	5.22
O=C(O)C[C@H](O)C[C@H](O)/C=C/c1cnn(-c2ccnc(Nc3ccccc3)n2)c1-c1cccc(C(F)(F)F)c1 [Example 11g, calcium salt]	4.85

Hi there! I need pIC50 for each item below, if you can.
1. O=C1C[C@H](O)C[C@@H](CCc2c(-c3ccccc3)nn(-c3ccnc(Nc4ccccc4)n3)c2-c2ccccc2)O1 [Example 11d]
2. COc1nccc(-n2nc(C(C)C)c(/C=C/[C@@H](O)C[C@@H](O)CC(=O)O)c2-c2cccc(C(F)(F)F)c2)n1 [Example 11e, calcium salt]

[5.10, 4.44]

----------
Provide the reported IC50 of each item.
System: LPS-induced TNF-α release from human peripheral blood mononuclear cells
Test details: Whole cell LPS-stimulated TNF-α release assay
Type: cell-based
Protocol conditions: Homo sapiens, PBMC; read-out: IC50 Whole cell
Procedure: The procedure as described in Welker et al., Int. Arch. Allergy and Immunol. 109:110-115 (1996) can be followed. Briefly, a candidate compound and/or vehicle can be preincubated with human peripheral blood mononuclear leukocytes (PBML, 5×10^5/ml) cells in AIM-V medium pH 7.4 for 2 hours. Lipopolysaccharide (LPS, 25 ng/ml) can be added to stimulate the cells, which can be incubated overnight at 37° C. TNF-α cytokine levels in the conditioned medium can then be quantitated using a sandwich ELISA kit. […]
Answers are plain numbers, in µM.

List the reported IC50 of each compound below.
1. O=C1C[C@H](O)C[C@@H](/C=C/c2c(-c3ccccc3)nn(-c3ccnc(Nc4ccccc4)n3)c2-c2ccccc2)O1 [Example 11b]
2. CCC(C)c1nn(-c2ccnc(Nc3ccccc3)c2)c(-c2ccc(F)cc2)c1/C=C/[C@@H]1C[C@@H](O)CC(=O)O1 (some centres unmarked) [Example 10b]
3. O=C(O)C[C@H](O)C[C@H](O)CCc1c(-c2ccccc2)nn(-c2ccnc(Nc3ccccc3)n2)c1-c1ccccc1 [Example 11c]
4. COc1nccc(-n2nc(C(C)C)c(/C=C/[C@@H]3C[C@@H](O)CC(=O)O3)c2-c2cccc(C(F)(F)F)c2)n1 [Example 11f]
5. O=C1C[C@H](O)C[C@@H](CCc2c(-c3ccccc3)nn(-c3ccnc(Nc4ccccc4)n3)c2-c2ccccc2)O1 [Example 11d]

21
14
18
16
11
